- Measurement target: 5-hydroxytryptamine receptor 1A (Homo sapiens, UniProt P08908)
- Sequence (P08908 whole entry): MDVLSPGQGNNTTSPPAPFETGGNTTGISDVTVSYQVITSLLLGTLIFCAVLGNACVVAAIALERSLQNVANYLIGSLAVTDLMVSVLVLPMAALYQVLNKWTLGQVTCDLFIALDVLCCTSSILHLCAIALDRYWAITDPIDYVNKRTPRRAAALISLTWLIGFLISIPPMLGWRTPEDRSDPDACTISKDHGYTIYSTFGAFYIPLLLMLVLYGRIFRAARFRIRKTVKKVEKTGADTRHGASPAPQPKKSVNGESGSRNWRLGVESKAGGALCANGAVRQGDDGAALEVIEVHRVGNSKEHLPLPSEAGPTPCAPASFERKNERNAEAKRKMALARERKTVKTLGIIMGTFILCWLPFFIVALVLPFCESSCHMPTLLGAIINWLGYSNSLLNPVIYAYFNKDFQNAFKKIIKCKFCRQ
- Assay remarks: Displacement of [3H]-Way100635 from recombinant human 5HT1A receptor stably expressed in CHO cells measured after 90 mins by microbeta scintillation counting method
Measured quantity: pKi
Notebook: values listed as pKi are -log10 of the concentration (mol/L).

Some compounds with recorded pKi:
{"Smiles notation": "Cc1ncc2nccn2c1-c1ccc(Oc2nccc3occc23)cc1C(F)(F)F", "pKi": 5.16}
{"Smiles notation": "FC(F)(F)c1cc(Oc2nccc3occc23)ccc1-c1cccc2nccn12", "pKi": 5.60}
{"Smiles notation": "Cc1cc(Oc2nccc3occc23)ccc1-c1c(C)ncc2nccn12", "pKi": 5.92}

From here, focus on the item given below.
Sample `FC(F)(F)c1cc(Oc2nccc3ccsc23)ccc1-c1cccc2nccn12` — what was its pKi?
5.43
